Tested on: KM12 colon
Assay Overview: NCI tumour cell line growth inhibition, 48 h
Exercise: for every item that follows, state its recorded TGI.

Lab book: TGI of COCOc1cc(OC)ccc1C/C(=N/O)C(=O)OC noted as > 100 µM

Lab book: TGI of CCc1nn2ncccc2c1-c1ccnc(NC2CC2)n1 noted as > 25 µM

Lab book: TGI of COc1cc(-c2nccc3cc4c(cc23)OCO4)cc(OC)c1OC noted as > 100 µM

Lab book: TGI of COc1ccc2c3c1OC1C(OC)(OC)CC4(C=C2)CN(C)CCC314 (stereo not drawn) noted as > 100 µM

Lab book: TGI of O/N=C\C(=Nc1ccc(Cc2ccc(N=C(/C=N\O)NO)cc2)cc1)NO noted as > 100 µM

Lab book: TGI of O=C1/C(=C/c2ccccc2)CCCc2ccccc21 noted as 35.2 µM

Lab book: TGI of S=C(CSc1ccccc1)Nc1cccc2ccccc12 noted as > 100 µM

Lab book: TGI of C=Cc1c(C)c2cc3[nH]c(cc4nc(cc5nc(cc1[nH]2)C(C)=C5CCC(=O)N(CC)CC)C(CCC(=O)N(CC)CC)=C4C)c(C)c3C=C noted as > 100 µM

Lab book: TGI of COc1cc(-c2cc3ncccc3c3[nH]c(=O)c4cccnc4c23)cc(OC)c1OC noted as > 100 µM

Lab book: TGI of Cc1ccc(SCC(OCn2cnc3c(Cl)nc(N)nc32)[C@H](C)F)cc1 (stereo partly drawn) noted as > 100 µM

Lab book: TGI of O=c1c2cccnc2ncn1CCCN1CCCC1 noted as > 100 µM

Lab book: TGI of C/C(CC(=O)Nc1ccc(NC(=O)C/C(C)=N\NC(N)=O)cc1)=N/NC(N)=O noted as > 100 µM

Lab book: TGI of CCn1c(CSc2nc(-c3ccccc3)c(-c3ccccc3)[nH]2)n[nH]c1=S noted as > 100 µM

Lab book: TGI of OC12c3ccccc3C1CCCCCC21OCCCO1 (stereo not drawn) noted as > 100 µM

Lab book: TGI of CC1=C(C#N)C(/C=C(\Cl)c2ccc(F)cc2)C(C#N)=C(C)N1 noted as > 100 µM

Lab book: TGI of CC(=O)NC1(C)C(C)C2CC1C(C)C2(C)C (stereo not drawn) noted as > 100 µM

Lab book: TGI of C#CC(O)/C=C/C(O)CCCC(O)CC#CC(O)C#CCCCCC(O)/C=C/CCCC(O)/C=C/CCCCCCCCCCCCCC(O)C(O)C#CC(=O)O (stereo not drawn) noted as > 25 µM

Lab book: TGI of Nc1c2cc3ccc2nc2ccc(cc12)OCCOCCOCCOCCOCCOCCO3 noted as > 10 µM

Lab book: TGI of O=C([CH-]C(=O)c1ccccc1)c1ccccc1.O=C([CH-]C(=O)c1ccccc1)c1ccccc1.O=C([CH-]C(=O)c1ccccc1)c1ccccc1.[Cl-].[Zr+4] noted as 56.6 µM

Lab book: TGI of CCC(C)(O)c1cn(-c2ccc(S(=O)(=O)O)cc2)nn1 (stereo not drawn) noted as > 100 µM

Lab book: TGI of COc1ccc(-c2n[nH]nc2-c2cc(OC)c3c(c2)OCO3)cc1 noted as 8.27 µM

Lab book: TGI of COc1cccc(NC(=O)c2sc3nc4c(cc3c2N)C(O)CCC4)c1 (stereo not drawn) noted as > 100 µM

Lab book: TGI of CC(C)(C)c1nc(-c2cccc(NS(=O)(=O)c3c(F)cccc3F)c2F)c(-c2ccnc(N)n2)s1 noted as > 92.4 µM

Lab book: TGI of COc1ccc(-c2nc(N)c(C#N)c3c2CCOc2c-3ccc3ccccc23)cc1 noted as > 100 µM

Lab book: TGI of O=c1[nH]c(=O)n(C2CC(O)C(CO)O2)cc1COCC(F)(F)F (stereo not drawn) noted as > 100 µM

Lab book: TGI of CCC[CH2][Sn]([CH2]CCC)([O]C(=O)c1cccc(F)c1F)[O]C(=O)c1cccc(F)c1F noted as 2.85 µM

Lab book: TGI of CC[C@@H](O)C[C@H]1CCC[C@@]2(C[C@@H]3OC(=O)/C=C/[C@@](C)(O)[C@@H](O)[C@H](C)[C@@H](O)[C@H](OC4CCC(N(C)C)C(C)O4)[C@@H](O)[C@](C)(O)CCCCC/C=C/[C@@H]4CC(C)(C)O[C@@]4(O)C[C@H](O2)[C@H]3C)O1 (stereo partly drawn) noted as 24.4 µM

Lab book: TGI of COc1cc(OC)c(OC)cc1/C=C/c1cc[n+](C)c2ccccc12 noted as 75 µM

Lab book: TGI of COc1ccccc1C1C(C#N)=C(N)Oc2cc(O)ccc21 (stereo not drawn) noted as > 100 µM

Lab book: TGI of CC(=O)O[C@H]1C(=O)[C@@]2(C)[C@H]([C@H](OC(=O)c3ccccc3)[C@]3(O)C[C@H](OC(=O)[C@H](O)[C@@H](NC(=O)c4ccc(N(C)C)cc4)c4ccccc4)C(C)=C1C3(C)C)[C@]1(OC(C)=O)CO[C@@H]1C[C@@H]2O noted as > 50 µM

Lab book: TGI of COc1cc2c3c(c1OC)C(=O)C=C3N(S(=O)(=O)c1ccc(C)cc1)CC2 noted as > 100 µM

Lab book: TGI of C=CCn1c(=N)/c(=C(\N)O)s/c1=C1/SC(=S)N(c2ccc(C)cc2)C1=O noted as > 100 µM

Lab book: TGI of COc1ccc2nc3cccc([N+](=O)[O-])c3c(NCCNCCN(C)C)c2c1 noted as 0.414 µM

Lab book: TGI of Cc1c(C)c2c(c(C)c1OCC(=O)O)CC[C@@](C)(CCC[C@@H](C)CCC[C@@H](C)CCCC(C)C)O2 noted as 173 µM

Lab book: TGI of CCOc1ccc(N=Cc2ccnc3ccccc23)cc1 noted as > 89.9 µM

Lab book: TGI of O=C(Oc1ccccc1)C(Br)C(Br)c1ccccc1 (stereo not drawn) noted as 3.75 µM

Lab book: TGI of CN(C)CCCCCNc1c2ccccc2nc2cccc([N+](=O)[O-])c12 noted as 0.0725 µM

Lab book: TGI of NC(CSC(c1ccccc1)(c1ccccc1)c1ccc(F)cc1)C(=O)O (stereo not drawn) noted as 20.7 µM

Every entry's value here was drawn from PubChem BioAssay (NCI).
